tested on: Fibroblast; assay: Multiplex assay against human fibroblast; assay type: toxicity, cell-based; conditions: 12 h, 1 µM, compound concentration 1 uM, replicate 2
Rule: Population Tubulin-Different-Phenotype (%) under 10% gives 0, otherwise 1.

- COMPOUND: "CCOC(=O)Nc1cc(-c2ccc(C)c(NS(C)(=O)=O)c2)nn2c(C)nnc12"
  CAT: 1
- COMPOUND: "CNC(=O)Nc1ccc2c(c1)[C@@]1(CC2)OC(=O)N(CC(=O)N(Cc2ccc(F)cc2)[C@@H](C)C(F)(F)F)C1=O [A-486]"
  CAT: 1
- COMPOUND: "COc1ccc(-c2ccc3ncc4c(c3c2)n(-c2ccc(N3CCNCC3)c(C(F)(F)F)c2)c(=O)n4C)cn1.O=C(O)/C=C\\C(=O)O [BGT-226]"
  CAT: 1
- COMPOUND: "CN1CCN(Cc2ccc(Nc3ncc(Cl)c(Nc4ccccc4S(=O)(=O)N(C)C)n3)cc2)CC1 [DUBERMATINIB]"
  CAT: 1
- COMPOUND: "COc1ccccc1CN[C@H]1C2CCN(CC2)[C@H]1C(c1ccccc1)c1ccccc1 [CP-96345]"
  CAT: 0
- COMPOUND: "CC(C)(C)NC[C@H](O)COc1nsnc1N1CCOCC1 [TIMOLOL]"
  CAT: 1
- COMPOUND: "CC(C)OC(=O)N1CCC(Oc2ncnc3c2cnn3-c2ccc(S(C)(=O)=O)cc2F)CC1"
  CAT: 0
- COMPOUND: "O=c1[nH]c2ccccc2n1C1CCN(Cc2ccc(-c3[nH]c4cc5ncnc5cc4nc3-c3ccccc3)cc2)CC1"
  CAT: 1

* * *

Reported Population Fragmented Nuclei (%) is given for each of the following compounds.
tested on: Fibroblast; assay: Multiplex assay against human fibroblast; format: toxicity, cell-based; details: 24 h, 1 µM, compound concentration 1 uM, replicate 2
EXPERIMENTAL READOUT: Population Fragmented Nuclei (%)

- COMPOUND: "COc1cc2ncn(-c3cc(OCc4ccccc4C(F)(F)F)c(C(N)=O)s3)c2cc1OC [GW843682X]"
  RECORDED NUMBER: 11
- COMPOUND: "Cc1ccc2c(c1)c1c(n2CCc2ccc(C)nc2)CCN(C)C1 [LATREPIRDINE]"
  RECORDED NUMBER: 23
- COMPOUND: "CC1=C(C(=O)Nc2cc3cn[nH]c3cc2F)C(c2ccc(C(F)(F)F)cc2)CC(=O)N1 (stereo not drawn)"
  RECORDED NUMBER: 7
- COMPOUND: "CC(C)CC(=O)Nc1[nH]nc2c1CN(C(=O)C1CCN(C)CC1)C2(C)C"
  RECORDED NUMBER: 57
- COMPOUND: "Cc1c[nH]c2nccc(Oc3c(F)cc(Nc4cc(Cl)nc(N)n4)cc3F)c12"
  RECORDED NUMBER: 8
- COMPOUND: "COc1cc(Nc2nccc(-c3cnn4nc(OC)ccc34)n2)cc(C(F)(F)F)c1"
  RECORDED NUMBER: 10
- COMPOUND: "CC(C)(C)NC[C@H](O)COc1nsnc1N1CCOCC1"
  RECORDED NUMBER: 11
- COMPOUND: "O=c1[nH]c2ccccc2n1C1CCN(Cc2ccc(-c3[nH]c4cc5ncnc5cc4nc3-c3ccccc3)cc2)CC1"
  RECORDED NUMBER: 70
- COMPOUND: "CC(C)NC(=O)N1CC[C@H](NC2=Nc3cc(F)ccc3N(CC(F)F)c3ccc(Cl)cc32)C1"
  RECORDED NUMBER: 5
- COMPOUND: "O=c1cc(N2CCOCC2)oc2c(-c3cccc4c3sc3ccccc34)cccc12"
  RECORDED NUMBER: 11
- COMPOUND: "COc1ccc(-c2ccc3ncc4c(c3c2)n(-c2ccc(N3CCNCC3)c(C(F)(F)F)c2)c(=O)n4C)cn1.O=C(O)/C=C\\C(=O)O"
  RECORDED NUMBER: 20
- COMPOUND: "CCc1nn(CCCN2CCN(c3cccc(Cl)c3)CC2)c(=O)n1CCOc1ccccc1.Cl [NEFAZODONE HYDROCHLORIDE]"
  RECORDED NUMBER: 8
- COMPOUND: "C=CC(=O)Nc1cccc(Oc2nc(Nc3ccc(N4CCN(C)CC4)cc3OC)ncc2Cl)c1"
  RECORDED NUMBER: 31
- COMPOUND: "Cc1ccc(C)c(Oc2ccncc2C(=O)N2CCN(C3CC3)c3ccccc32)c1"
  RECORDED NUMBER: 27
- COMPOUND: "CN1CCN(Cc2ccc(Nc3ncc(Cl)c(Nc4ccccc4S(=O)(=O)N(C)C)n3)cc2)CC1"
  RECORDED NUMBER: 11
- COMPOUND: "Cc1ccccc1C(c1ccccc1C)N1C2CCC1CC(O)(c1ccccc1)C2 (stereo not drawn)"
  RECORDED NUMBER: 9
- COMPOUND: "CC(C)c1noc(N2CCC(COc3ccc(-c4ccc(S(C)(=O)=O)cc4)nc3)CC2)n1"
  RECORDED NUMBER: 14
- COMPOUND: "C[C@]12CC[C@@H]3c4ccc(O)cc4CC[C@H]3[C@@H]1CC[C@@H]2O"
  RECORDED NUMBER: 4

* * *

Reported Population Pyknosed Nuclei (%) is given for each of the following molecules.
system: U2OS; assay: Multiplex assay against U2OS; assay type: toxicity, cell-based; conditions: human, 24 h, 1 µM, compound concentration 1 uM, replicate 2
EXPERIMENTAL READOUT: Population Pyknosed Nuclei (%)

- MOLECULE: "O=C(c1cc2c(cc1F)OC(c1ccc(F)cc1)(c1ccc(Cl)cc1Cl)O2)N1CCOCC1 (centres undefined)"
  TARGET DESC: "U2OS"
  MEASUREMENT UNIT: "%"
  RECORDED NUMBER: 5
- MOLECULE: "CC(C)Oc1ccccc1C(=O)Nc1ccccc1C(=O)Nc1cccc(S(=O)(=O)C(F)(F)F)c1"
  TARGET DESC: "U2OS"
  MEASUREMENT UNIT: "%"
  RECORDED NUMBER: 11
- MOLECULE: "CCc1nn(CCCN2CCN(c3cccc(Cl)c3)CC2)c(=O)n1CCOc1ccccc1.Cl [NEFAZODONE HYDROCHLORIDE]"
  TARGET DESC: "U2OS"
  MEASUREMENT UNIT: "%"
  RECORDED NUMBER: 5
- MOLECULE: "CCOC(=O)Nc1cc(-c2ccc(C)c(NS(C)(=O)=O)c2)nn2c(C)nnc12"
  TARGET DESC: "U2OS"
  MEASUREMENT UNIT: "%"
  RECORDED NUMBER: 5
- MOLECULE: "C[C@]1(O)C[C@@H](c2nc(-c3ccc4ccc(-c5ccccc5)nc4c3)c3c(N)nccn32)C1"
  TARGET DESC: "U2OS"
  MEASUREMENT UNIT: "%"
  RECORDED NUMBER: 7
- MOLECULE: "COc1cc2ncn(-c3cc(OCc4ccccc4C(F)(F)F)c(C(N)=O)s3)c2cc1OC [GW843682X]"
  TARGET DESC: "U2OS"
  MEASUREMENT UNIT: "%"
  RECORDED NUMBER: 14
- MOLECULE: "CC1=C(C(=O)Nc2cc3cn[nH]c3cc2F)C(c2ccc(C(F)(F)F)cc2)CC(=O)N1 (centres undefined)"
  TARGET DESC: "U2OS"
  MEASUREMENT UNIT: "%"
  RECORDED NUMBER: 6
- MOLECULE: "C=CC(=O)Nc1cccc(Sc2nc(Nc3ccc(N4CCN(C)CC4)cc3)ncc2Cl)c1"
  TARGET DESC: "U2OS"
  MEASUREMENT UNIT: "%"
  RECORDED NUMBER: 40
- MOLECULE: "Cc1ccc2c(c1)c1c(n2CCc2ccc(C)nc2)CCN(C)C1 [LATREPIRDINE]"
  TARGET DESC: "U2OS"
  MEASUREMENT UNIT: "%"
  RECORDED NUMBER: 8

* * *

test system: U2OS; experiment: Multiplex assay against U2OS; format: toxicity, cell-based; details: human, 48 h, 10 µM, compound concentration 10 uM, replicate 2
EXPERIMENTAL READOUT: Population Hoechst High Intensity Objects (%)

- COMPOUND: "CC(C)(C)NC[C@H](O)COc1nsnc1N1CCOCC1 [TIMOLOL]"
  MEASUREMENT UNIT: "%"
  RECORDED NUMBER: 1
- COMPOUND: "COc1cc2ncn(-c3cc(OCc4ccccc4C(F)(F)F)c(C(N)=O)s3)c2cc1OC [GW843682X]"
  MEASUREMENT UNIT: "%"
  RECORDED NUMBER: 6
- COMPOUND: "Cl.O=C(O)c1cc(-c2ccc(C3CCNCC3)cc2)c2ccc(-c3ccc(C(F)(F)F)cc3)cc2c1"
  MEASUREMENT UNIT: "%"
  RECORDED NUMBER: 10
- COMPOUND: "O=c1cc(N2CCOCC2)oc2c(-c3cccc4c3sc3ccccc34)cccc12"
  MEASUREMENT UNIT: "%"
  RECORDED NUMBER: 12
- COMPOUND: "CN1CCN(Cc2ccc(Nc3ncc(Cl)c(Nc4ccccc4S(=O)(=O)N(C)C)n3)cc2)CC1 [DUBERMATINIB]"
  MEASUREMENT UNIT: "%"
  RECORDED NUMBER: 20
- COMPOUND: "CCOC(=O)Nc1cc(-c2ccc(C)c(NS(C)(=O)=O)c2)nn2c(C)nnc12"
  MEASUREMENT UNIT: "%"
  RECORDED NUMBER: 2
- COMPOUND: "CC(C)Oc1ccccc1C(=O)Nc1ccccc1C(=O)Nc1cccc(S(=O)(=O)C(F)(F)F)c1"
  MEASUREMENT UNIT: "%"
  RECORDED NUMBER: 9
- COMPOUND: "CC(C)c1noc(N2CCC(COc3ccc(-c4ccc(S(C)(=O)=O)cc4)nc3)CC2)n1 [GSK-1292263]"
  MEASUREMENT UNIT: "%"
  RECORDED NUMBER: 2
- COMPOUND: "O=C(c1cc2c(cc1F)OC(c1ccc(F)cc1)(c1ccc(Cl)cc1Cl)O2)N1CCOCC1 (stereo not drawn)"
  MEASUREMENT UNIT: "%"
  RECORDED NUMBER: 8
- COMPOUND: "Cc1ccc(C)c(Oc2ccncc2C(=O)N2CCN(C3CC3)c3ccccc32)c1"
  MEASUREMENT UNIT: "%"
  RECORDED NUMBER: 1
- COMPOUND: "CC(C)NC(=O)N1CC[C@H](NC2=Nc3cc(F)ccc3N(CC(F)F)c3ccc(Cl)cc32)C1"
  MEASUREMENT UNIT: "%"
  RECORDED NUMBER: 13
- COMPOUND: "Cc1cccc(CN2CCN(C(c3ccccc3)c3ccc(Cl)cc3)CC2)c1.Cl.Cl (stereo not drawn)"
  MEASUREMENT UNIT: "%"
  RECORDED NUMBER: 5
- COMPOUND: "CC(C)OC(=O)N1CCC(Oc2ncnc3c2cnn3-c2ccc(S(C)(=O)=O)cc2F)CC1"
  MEASUREMENT UNIT: "%"
  RECORDED NUMBER: 1
- COMPOUND: "CCc1ccc(OCc2ccccc2C(=O)Nc2ccc3nc(C)cc(N)c3c2)cc1.Cl"
  MEASUREMENT UNIT: "%"
  RECORDED NUMBER: 63
- COMPOUND: "CCc1nn(CCCN2CCN(c3cccc(Cl)c3)CC2)c(=O)n1CCOc1ccccc1.Cl [NEFAZODONE HYDROCHLORIDE]"
  MEASUREMENT UNIT: "%"
  RECORDED NUMBER: 8
- COMPOUND: "CC1=C(C(=O)Nc2cc3cn[nH]c3cc2F)C(c2ccc(C(F)(F)F)cc2)CC(=O)N1 (stereo not drawn)"
  MEASUREMENT UNIT: "%"
  RECORDED NUMBER: 3
- COMPOUND: "C[C@]12CC[C@@H]3c4ccc(O)cc4CC[C@H]3[C@@H]1CC[C@@H]2O [ESTRADIOL]"
  MEASUREMENT UNIT: "%"
  RECORDED NUMBER: 2
- COMPOUND: "Cc1ccc2c(c1)c1c(n2CCc2ccc(C)nc2)CCN(C)C1 [LATREPIRDINE]"
  MEASUREMENT UNIT: "%"
  RECORDED NUMBER: 5
